- EXPERIMENT_DESCRIPTION: Pharmacokinetics in mice after oral administration, plasma and brain by LC/MS/MS
- TEST_PARAMETERS: mouse plasma, 30 mg/kg CuXTSM API oral; CuATSM in SSV, NCDs in water
label 1 if Plasma Cmax is below 30 ng/mL. label 0 if not; exact matches included in label 0.

- MOLECULE: "CNC1=NN=C(C)C(C)=NN=C(NC)[S][Cu][S]1.O=C1NS(=O)(=O)c2ccccc21.O=C1NS(=O)(=O)c2ccccc21 [CuATSM:saccharin (1:2)]"
  QUALITATIVE_LABEL: "label 1"
- MOLECULE: "CNC1=NN=C(C)C(C)=NN=C(NC)[S][Cu][S]1.O=C(O)C(O)C(O)C(O)C(O)CO.O=C(O)C(O)C(O)C(O)C(O)CO [CuATSM:gluconic acid (1:2)]"
  QUALITATIVE_LABEL: "label 0"

Incoming: In plain terms, does CNC1=NN=C(C)C(C)=NN=C(NC)[S][Cu][S]1 [CuATSM, reference compound] come in under 30 ng/mL for Plasma Cmax?
Outgoing: label 1

Incoming: Likewise for CNC1=NN=CC(C)=NN=C(NC)[S][Cu][S]1.O=C1NS(=O)(=O)c2ccccc21.O=C1NS(=O)(=O)c2ccccc21 [CuPTSM:saccharin (1:2)] ?
Outgoing: label 0

Incoming: Likewise for CNC1=NN=C(C)C(C)=NN=C(NC)[S][Cu][S]1.O=C(O)CC(O)(CC(=O)O)C(=O)O [CuATSM:citric acid (1:1)] ?
Outgoing: label 1
